Experimental system: Alpha-galactosidase (Coffea arabica) (UniProt Q42656)
Sequence (Q42656 16-378 limits assumed): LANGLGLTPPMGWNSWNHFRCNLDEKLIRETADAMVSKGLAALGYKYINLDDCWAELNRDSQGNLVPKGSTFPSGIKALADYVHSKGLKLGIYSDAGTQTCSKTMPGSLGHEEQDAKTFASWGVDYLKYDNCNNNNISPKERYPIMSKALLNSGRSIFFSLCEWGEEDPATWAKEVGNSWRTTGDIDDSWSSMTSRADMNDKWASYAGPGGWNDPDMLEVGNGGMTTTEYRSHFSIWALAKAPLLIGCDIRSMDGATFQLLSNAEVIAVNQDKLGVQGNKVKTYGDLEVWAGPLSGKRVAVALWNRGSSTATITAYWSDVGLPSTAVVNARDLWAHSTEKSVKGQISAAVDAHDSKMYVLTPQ
Method summary: Inhibition of coffee beans alpha-galactosidase assessed as reduction of p-nitrophenol release using p-nitrophenyl-glycoside as substrate at 1000 uM by spectrophotometric analysis
Endpoint name: inhibition (%)

[1] Cc1ccc([C@@H]2NC[C@H](O)[C@H]2O)cc1
[2] O[C@H]1[C@H](O)CN[C@@H]1c1ccccc1
Req: Choose between 1 and 2 : whose measured inhibition value is numerically larger? Please indicate the selected item by its label.
Resp: 2
(2: 8.6%, 1: 0%)

###

Experimental system: Lysosomal acid glucosylceramidase (Homo sapiens, UniProt P04062)
Sequence (P04062 whole entry): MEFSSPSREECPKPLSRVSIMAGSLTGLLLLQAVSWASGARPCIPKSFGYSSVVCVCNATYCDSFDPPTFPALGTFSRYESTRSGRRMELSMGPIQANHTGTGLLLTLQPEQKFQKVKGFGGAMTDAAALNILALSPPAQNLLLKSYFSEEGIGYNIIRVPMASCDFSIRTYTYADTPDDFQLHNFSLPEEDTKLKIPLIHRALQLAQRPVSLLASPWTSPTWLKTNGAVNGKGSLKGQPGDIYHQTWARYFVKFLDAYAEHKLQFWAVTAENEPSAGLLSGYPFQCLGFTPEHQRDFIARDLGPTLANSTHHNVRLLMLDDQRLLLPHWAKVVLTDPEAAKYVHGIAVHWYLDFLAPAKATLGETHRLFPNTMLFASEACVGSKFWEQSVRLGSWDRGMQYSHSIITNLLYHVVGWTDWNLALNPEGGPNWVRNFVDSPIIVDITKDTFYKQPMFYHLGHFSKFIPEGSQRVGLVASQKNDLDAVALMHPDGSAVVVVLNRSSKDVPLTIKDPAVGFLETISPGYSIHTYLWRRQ
Method summary: Inhibition of human GCase assessed as reduction of 4-methylumbelliferone liberation using 4-methylumbelliferyl-beta-glucopyranoside as substrate preincubated with enzyme for 45 mins followed by substrate addition and measured after 30 mins by fluorescence spectrophotometry
pIC50: −log10 of the molar value.
Endpoint name: pIC50

// below: answered compounds
CCCCCC[C@H]1N[C@H](CO)[C@@H](O)[C@@H]1O : 4.52
CCCCCCCCCC[C@H]1N[C@H](CO)[C@@H](O)[C@@H]1O : 5.72

[I] CCCCCCCCCCC[C@H]1N[C@H](CO)[C@@H](O)[C@@H]1O
[II] CCCCC[C@H]1N[C@H](CO)[C@@H](O)[C@@H]1O
Req: // pick min by pIC50: I , II Please indicate the selected item by its label.
Resp: II
(II: 4.47, I: 5.64)

###

Experimental system: Alpha-galactosidase (Coffea arabica) (UniProt Q42656)
Method summary: Inhibition of coffee beans alpha-galactosidase assessed as reduction of p-nitrophenol release using p-nitrophenyl-glycoside as substrate at 1000 uM by spectrophotometric analysis
Endpoint name: inhibition (%)

[1] O[C@H]1[C@H](O)CN[C@@H]1c1ccc(-c2ccccc2)cc1
[2] OC[C@H]1NC[C@@H](O)[C@@H]1O
[3] O[C@@H]1[C@@H](O)CN[C@H]1c1ccc(-c2ccccc2)cc1
Req: Take the compounds listed above and rank them by inhibition; the top slot goes to the highest value. To answer, arrange all of the labels according to the requested order.
Resp: 2, 3, 1
